- ASSAYED TARGET: Tumor necrosis factor receptor superfamily member 10B (Homo sapiens) (UniProt O14763)
- Sequence (O14763 whole entry, looked up): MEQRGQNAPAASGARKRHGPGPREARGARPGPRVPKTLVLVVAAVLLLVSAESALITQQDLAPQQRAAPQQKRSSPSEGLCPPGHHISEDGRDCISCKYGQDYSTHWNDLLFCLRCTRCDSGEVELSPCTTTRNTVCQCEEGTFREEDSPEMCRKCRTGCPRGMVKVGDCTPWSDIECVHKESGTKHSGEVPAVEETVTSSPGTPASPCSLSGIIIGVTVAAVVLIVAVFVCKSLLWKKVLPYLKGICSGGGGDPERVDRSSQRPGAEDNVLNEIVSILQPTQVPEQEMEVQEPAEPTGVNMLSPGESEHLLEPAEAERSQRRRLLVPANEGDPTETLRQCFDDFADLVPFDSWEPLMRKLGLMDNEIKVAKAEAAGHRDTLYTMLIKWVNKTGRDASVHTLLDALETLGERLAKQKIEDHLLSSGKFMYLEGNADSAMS
- PROTOCOL: TRAIL sensitizers in caspase-8 expressing neuroblastoma cells, dose response, NB7 cells plus caspase-8, luminescence, panel (AID 652002)
- RUN PARAMETERS: NB7 neuroblastoma +caspase-8, TRAIL sensitization, luminescence viability, NB7+Caspase-8, with TRAIL, run 1; at 12.5 µM (top of the series)
// NB: equality with 20% counts as no (0); only activity, % sensitization strictly below is yes (1)

In the record for CCOC(=O)C(=C1Nc2ccccc2N1)n1c(-c2cccnc2)nc2ccccc21 , is activity, % sensitization less than 20%?
no (0)

* * *

- ASSAYED TARGET: Tumor necrosis factor receptor superfamily member 10B (Homo sapiens) (UniProt O14763)
- PROTOCOL: caspase-8 TRAIL sensitization, hit retest, confirmation, cell-based, NB7+caspase-8, with/without TRAIL, luminescence panel (AID 651596)
- RUN PARAMETERS: NB7 neuroblastoma + caspase-8, TRAIL sensitization, luminescence viability, with TRAIL, mean of runs, at 10 µM, stronger effect = higher value
Reported activity values follow for various compounds
// units = %; emit number, no label

Need activity of O=C(NNC(=O)c1cc(OCC(F)(F)F)ccc1OCC(F)(F)F)c1cccc(C(F)(F)F)c1 , thanks.
50.6

Field request: activity | item: COc1cccc(C(=O)Nc2nc3ccccc3[nH]2)c1
91

* * *

- ASSAYED TARGET: Sentrin-specific protease 6 (Homo sapiens) (UniProt Q9GZR1)
- Sequence (Q9GZR1 628-1112 limits assumed): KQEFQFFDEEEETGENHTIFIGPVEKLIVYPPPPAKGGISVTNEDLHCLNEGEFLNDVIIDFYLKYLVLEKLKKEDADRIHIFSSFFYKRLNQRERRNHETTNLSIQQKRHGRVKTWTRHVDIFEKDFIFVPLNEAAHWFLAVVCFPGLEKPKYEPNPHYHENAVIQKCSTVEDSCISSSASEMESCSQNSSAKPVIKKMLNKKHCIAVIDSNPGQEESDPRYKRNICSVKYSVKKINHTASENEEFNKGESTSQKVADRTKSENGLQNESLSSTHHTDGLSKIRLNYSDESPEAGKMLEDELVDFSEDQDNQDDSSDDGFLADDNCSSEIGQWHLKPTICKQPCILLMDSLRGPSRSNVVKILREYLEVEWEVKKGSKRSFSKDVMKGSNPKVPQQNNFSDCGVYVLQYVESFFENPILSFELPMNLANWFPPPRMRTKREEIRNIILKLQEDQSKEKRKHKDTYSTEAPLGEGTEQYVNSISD
- PROTOCOL: SENP6 protease inhibitors, confirmation, biochemical, luminescence, single concentration (AID 488915)
- RUN PARAMETERS: recombinant SENP6, Z-RLRGG-aminoluciferin luminescence; at 12.5 µM
The other results are listed elsewhere or left out. Activity calls are given as the source filed them.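 Rule for the calls: active = mean inhibition above about 50% in the one-dose retest (limit read from the data); inactive = the rest.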
Hi! Could you answer with just one of these? yes = active, no = inactive

Example cases with answers are listed next.
INSERT INTO measurements (molecule, label) VALUES
  ('COc1ccc(N=C(C)c2sc3ccccc3c2O)cc1', 'no'),
  ('CCn1nccc1C(=O)Nc1ccc(Cl)c(Cl)c1', 'yes'),
  ('CCNc1nc(N)nc(Oc2ccc(OCC)nn2)n1', 'no'),
  ('COc1ccc(/C=C2/SC(=O)N(CCCCCC(=O)Nc3ccccc3C(=O)O)C2=S)cc1', 'no'),
  ('COc1ccc(C(=O)Nc2ccccc2C(=O)N/N=C/c2ccc(O)c(OC)c2)cc1', 'yes'),
  ('COc1ccc(-c2cn3ccsc3n2)cc1', 'yes');

What did this assay record as the result for CCC(=O)Nc1ccc(C(=O)Nc2cccc(OC)c2)cc1 ?
no

What was the test verdict on CC(=O)Oc1ccc2c(c1)C(=O)c1ccccc1C2=O ?
no

* * *

- PROTOCOL: caspase-8 TRAIL sensitization, hit retest, confirmation, cell-based, NB7+caspase-8, with/without TRAIL, luminescence panel (AID 651596)
- RUN PARAMETERS: NB7 neuroblastoma + caspase-8, without TRAIL, luminescence viability, without TRAIL, mean of runs, at 10 µM
RESULT TYPE: activity (%)
Expressed in %, but write only the number.

Examples with answers:
INSERT INTO measurements (smiles_entry, observed) VALUES
  ('O=c1cc(-c2c(F)c(F)c(F)c(F)c2F)oc2ccccc12', 92.1),
  ('N#Cc1ccccc1NC(=O)COC(=O)/C=C/c1cn(-c2ccccc2)nc1-c1ccc(Cl)cc1', 80.4),
  ('COc1cccc(C(=O)Nc2nc3ccccc3[nH]2)c1', 85.3),
  ('Cc1ccc(C(=O)Nc2ccc3c(c2)CCC3)cc1', 76.2),
  ('CCCCCCCN(C(=O)CCl)c1cccc(C)c1', 99),
  ('CN=c1scc(C)n1/N=C/c1ccc2c(c1)OCO2', 42.2),
  ('Cc1ccc2sc(N(CCCN(C)C)C(=O)CCS(=O)(=O)c3ccccc3)nc2c1C', 93),
  ('CCOc1ccc(C(=O)N/N=C/c2ccccc2[N+](=O)[O-])cc1', 62.8),
  ('COc1ccc(/C=C2/Sc3ccc(C(=O)NCCN4CCCCCC4)cc3NC2=O)cc1', 94.7),
  ('O=C(Nc1nc(-c2nc3ccccc3s2)cs1)C1CC1', 69.9);

Lab note: next molecule to report on.
Item under review: Cc1nc2cc(Nc3nnc(-c4ccccc4)c4ccccc34)ccc2n1C . Reported activity?
83.9
